DQ Spot for assorted molecules
System: SH-SY5Y cells; further: reference of the scale not given here
assay.conditions: PKIS2 primary screening, DQ Red BSA spot count
Number only, please.

Below: 6 molecules and their reported DQ Spot.
Report DQ Spot for Nc1nc(-c2ccccn2)c(-c2ccnc3ccccc23)s1 [UNC10225201A]
92.32

Look up DQ Spot of COc1ccc(Nc2nccc(N3CCC(NC(=O)C(C)c4ccc(Cl)cc4)CC3)n2)cc1 (centres unmarked) [GSK1379812] and report it.
89.99

Provide one value: measured DQ Spot of Cc1csc(-c2nc(Nc3ccncc3)c3ccccc3n2)n1 [GW869640]
102.29

Indicate its recorded DQ Spot; the molecule in question is O=C(Nc1ccc2c(c1)OCO2)NC1CCN(c2ccnc(Nc3ccc(F)cc3)n2)C1 (centres unmarked) [GSK1379724]
99.32

Kindly indicate its recorded DQ Spot. Item: NCC(NC(=O)c1cc(-c2cn[nH]c2)c(-c2ccnc3[nH]ccc23)s1)c1ccccc1.O=C(O)C(F)(F)F.O=C(O)C(F)(F)F (centres unmarked) [UNC10225196A]
101.21

Provide only the value of recorded DQ Spot for COc1cccc(NC(=O)NC2CCN(c3ccnc(Nc4ccc(F)cc4)n3)C2)c1 (centres unmarked) [GSK1379721]
102.23

New cases:
Look up and state reported DQ Spot for O=C(Nc1n[nH]c2cc(-c3ccco3)ccc12)C1CC1 [SB-737447]
97.06

For the molecule Cc1cccc(-c2nc(Nc3ccc4c(cnn4C)c3)c3ccccc3n2)n1 [GW876731] , give its reported DQ Spot.
100.57

====

System: endogenous TFE3
assay.method.text: TFE3 nuclear translocation, immunocytochemistry high-content imaging
Type: cell-based
assay.conditions: PKIS2 primary screening
# note: exactly 20% is not below, so it is N; use Y for TFE3 % strictly under it

Worked examples, 5 molecules total:
Please determine if Fc1ccc(-c2nc3n(c2-c2ccncc2)CCS3)cc1 [UNC10225163A] is below 20% in terms of TFE3 %.
Y

Please let me know if CCOc1nccc(-c2c(-c3ccc(F)cc3)ncn2C2CCNCC2)n1 [UNC10225194A] shows TFE3 % below 20%.
Y

Consider Nc1ncnc2occ(-c3ccc4c(c3)CCN4C(=O)Cc3cc(F)ccc3F)c12 [UNC10225000A] . Does its TFE3 % lie strictly below 20%?
Y

Is TFE3 % of CN(c1ccc2c(c1)nc(NCc1ccccc1)n2C)c1ccnc(Nc2ccc(CS(C)(=O)=O)cc2)n1 strictly below 20%?
Y

Item Cl.Fc1ccccc1COc1ccc(Nc2ncnc3ccc(-c4nnc(C(F)(F)F)o4)cc23)cc1Cl [UNC10225422A] : TFE3 % beneath 20%, strictly?
Y

---
State whether 20% exceeds TFE3 % recorded for COc1ccc(Nc2nccc(N3CCC(NS(=O)(=O)c4ccc(NC(C)=O)cc4)C3)n2)cc1 (stereo not drawn) .
Y

Does the reported TFE3 % of Cl.Cl.NC(CNC(=O)c1cc(Br)c(-c2ccnc3[nH]ccc23)s1)c1ccccc1 (stereo not drawn) [UNC10225176A] stay below 20%?
N

Please state whether TFE3 % is below 20% for Nc1ncnc2scc(-c3ccc(NC(=O)Cc4cc(F)ccc4F)cc3)c12.O=C(O)C(F)(F)F [UNC10225107A]
Y

Strictly below 20%: is that where TFE3 % of Nc1ncnc2c1nc(-c1ccccc1)n2-c1ccccc1 [UNC10225340A] sits?
Y

Strictly below 20%: is that where TFE3 % of FC(F)(F)c1cc(Br)cc(Nc2nccc(-c3cnn4ncccc34)n2)c1 [UNC10225191A] sits?
Y

Is it true that TFE3 % reported for Cc1cccc2c(-c3ccncc3)c(-c3ccc(F)cc3)nn12.Cl [UNC10225316A] is less than 20%?
N
